experiment: Human HepG2 cell viability assay in 384 well format; assay type: toxicity, cell-based; parameters: dose 125 nL, time 70.5 hour; concentration not given beside the values; conditions: HepG2 cells, read-out: Inhibition
property measured: cytotoxicity at 70.5 h (%)

[[record]]
compound = "CC(C)Oc1ccc(CN2CCC(Cc3nnc(CO)n3C)CC2)cc1"
observed = -0.794

[[record]]
compound = "CC(C)C(=O)N1CCCC(c2ncncc2-c2ccncc2)C1 (stereo unspecified)"
observed = 13.6

[[record]]
compound = "CCN(CC(=O)NC)C(=O)Cc1csc(C(C)C)n1"
observed = -1.76

[[record]]
compound = "CCC(C)NC(=O)c1ccccc1-n1cnnn1 (stereo unspecified)"
observed = -11.4

[[record]]
compound = "CCc1ccc(C(=O)N2CCCCC2Cn2cccn2)o1 (stereo unspecified)"
observed = 6.61

[[record]]
compound = "Cc1c(CN2CCOCC2)c(O)n(CCO)c(=O)c1C#N"
observed = 41


* * *

test: Human HepG2 cell viability assay in 384 well format; type: toxicity, cell-based; set-up: dose 125 nL, time 70.5 hour; concentration not given beside the values; details: HepG2 cells, read-out: Inhibition
property measured: cytotoxicity at 70.5 h (%)

[[record]]
compound = "COC(=O)C1CCCCN1C(=O)c1ccc(N(C)C)cc1F (stereo not drawn)"
observed = 2.71

[[record]]
compound = "O=C(Nc1ccc(-n2ccc(C(=O)O)n2)cc1)c1ccccc1"
observed = -1.13

[[record]]
compound = "Cc1c(-c2cc(C(F)F)nc3sc(C(N)=O)c(N)c23)cnn1C"
observed = -1.99

[[record]]
compound = "COCc1c(C(=O)N2CCCC(C(=O)c3ccccc3)C2)noc1C (stereo not drawn)"
observed = -3.85

[[record]]
compound = "CSc1ccc(NC(=O)NCC2CCCO2)cc1F (stereo not drawn)"
observed = 11.2

[[record]]
compound = "Cn1nccc1C(=O)N1CCC(n2cc(-c3ccsc3)nn2)CC1"
observed = -3.85

[[record]]
compound = "OC1(CNCCc2csc(-c3ccncc3)n2)CCCNC1 (stereo not drawn)"
observed = -5.37

[[record]]
compound = "Cc1ccccc1CN(C)CC(O)COCc1ccccc1Cl (stereo not drawn)"
observed = 21.6

[[record]]
compound = "COC(=O)c1cccc(S(=O)(=O)N2CSCC2C(=O)N(C)C2CC2)c1 (stereo not drawn)"
observed = 12.1

[[record]]
compound = "Cc1cccc(C)c1NC(=O)c1cccc(CN2CCCC2C)c1 (stereo not drawn)"
observed = 3.17

[[record]]
compound = "O=C(CCCNc1ncccn1)N1CCCC(n2cncn2)C1 (stereo not drawn)"
observed = -7.32

[[record]]
compound = "Cc1ccc(C(=O)N2CCN(Cc3cccs3)CC2)c(=O)[nH]1"
observed = -3.21

[[record]]
compound = "CN(CCNC(=O)NCc1ccsc1)C1CCCC1"
observed = -8.28


* * *

test: Human HepG2 cell viability assay in 384 well format; type: toxicity, cell-based; parameters: dose 125 nL, time 70.5 hour; concentration not given beside the values; conditions: HepG2 cells, read-out: Inhibition
We begin with a simple list: items and their reported cytotoxicity at 70.5 h.
property measured: cytotoxicity at 70.5 h (%)

[[record]]
molecule = "CCCN1CCN(Cc2nccn2CC)C(C)C1 (configuration not stated)"
observed = 19.6

[[record]]
molecule = "COc1ccccc1OC1CCN(C(=O)CCCN2CCOCC2)CC1"
observed = -9.29

[[record]]
molecule = "CCOC(=O)c1sc2ccsc2c1CNC(=O)C(C)(C)C#N"
observed = -2.32

[[record]]
molecule = "CN(C)[C@@H]1CO[C@H](CNC(=O)CC(C)(C)C)[C@H]1O"
observed = -0.485

[[record]]
molecule = "CC(C)OCCC1CCCCN1S(=O)(=O)c1cnn(C)c1 (configuration not stated)"
observed = -4.85

[[record]]
molecule = "CN(CCCC1CCCO1)S(=O)(=O)NCc1ccccc1 (configuration not stated)"
observed = 10.8

[[record]]
molecule = "O=C(c1ccoc1)N1CCCn2cnc(COCC3CC3)c2C1"
observed = -10.8


* * *

We begin with a simple list: items and their reported cytotoxicity at 70.5 h.
test: Human HepG2 cell viability assay in 384 well format; format: toxicity, cell-based; parameters: dose 125 nL, time 70.5 hour; concentration not given beside the values; details: HepG2 cells, read-out: Inhibition
property measured: cytotoxicity at 70.5 h

[[record]]
compound = "CN(C)c1cc(CNC(=O)Nc2ccc(S(C)(=O)=O)nc2)ccn1"
property_measured = "cytotoxicity at 70.5 h"
observed = "-15.4%"

[[record]]
compound = "CCOC(=O)C1CCN(C(=O)c2cnn(-c3ccccc3F)c2N)CC1"
property_measured = "cytotoxicity at 70.5 h"
observed = "-4.94%"

[[record]]
compound = "CN1CCN(Cc2cccnc2)C2(CCN(Cc3ccccn3)C2)C1=O (stereo not drawn)"
property_measured = "cytotoxicity at 70.5 h"
observed = "-7.04%"

[[record]]
compound = "COCC1CN(Cc2ccncc2)Cc2nn(CC3CC3)cc21 (stereo not drawn)"
property_measured = "cytotoxicity at 70.5 h"
observed = "-12.8%"

[[record]]
compound = "Cc1ccc(CNC(=O)NCC(=O)NC(C)(C)C)c(N2CCCC2)c1"
property_measured = "cytotoxicity at 70.5 h"
observed = "-16.8%"

[[record]]
compound = "C1CC(CN2C[C@H]3CC[C@@H]2CN(Cc2nnc(C4CC4)o2)C3)C1"
property_measured = "cytotoxicity at 70.5 h"
observed = "-16.7%"

[[record]]
compound = "c1cnc(N2C[C@H]3CCN(c4cccnc4)C[C@H]3C2)nc1"
property_measured = "cytotoxicity at 70.5 h"
observed = "-6.6%"

[[record]]
compound = "CC(=O)N1CCN([C@@H]2CN(C(=O)c3ccccc3)C[C@H]2O)CC1"
property_measured = "cytotoxicity at 70.5 h"
observed = "-5.08%"

[[record]]
compound = "CN1CCC2(CCN(c3ncc(F)cn3)CC2)C1=O"
property_measured = "cytotoxicity at 70.5 h"
observed = "-1.11%"

[[record]]
compound = "CC(Cc1ccccc1F)C(=O)Nc1cccc(OCC(N)=O)c1 (stereo not drawn)"
property_measured = "cytotoxicity at 70.5 h"
observed = "-2.21%"

[[record]]
compound = "Cc1noc(C)c1-c1ccnc(C2CCN(S(=O)(=O)N(C)C)CC2)c1"
property_measured = "cytotoxicity at 70.5 h"
observed = "-2.76%"

[[record]]
compound = "Nc1ccncc1-n1cc(CCO)cn1"
property_measured = "cytotoxicity at 70.5 h"
observed = "1.11%"

[[record]]
compound = "Cc1noc(C)c1CCCNC(=O)Nc1ccc2c(c1)COC2"
property_measured = "cytotoxicity at 70.5 h"
observed = "7.04%"

[[record]]
compound = "COc1ncccc1NC(=O)NC(C)(C)c1ncc(C)s1"
property_measured = "cytotoxicity at 70.5 h"
observed = "16.5%"

[[record]]
compound = "O=C(NCCO)Nc1c(F)cccc1Oc1ccccc1"
property_measured = "cytotoxicity at 70.5 h"
observed = "-7.66%"

[[record]]
compound = "O=C(Cn1cccn1)N1CCC(Cn2cc(-c3ccsc3)nn2)CC1"
property_measured = "cytotoxicity at 70.5 h"
observed = "-10.6%"

[[record]]
compound = "O=C1COC2(CCN(Cc3cccnc3)CC2)CN1c1ccccc1"
property_measured = "cytotoxicity at 70.5 h"
observed = "-8.85%"

[[record]]
compound = "Cc1csc(N2CCCN(C(=O)c3c(C)oc(C)c3C)CC2)n1"
property_measured = "cytotoxicity at 70.5 h"
observed = "-1.91%"

[[record]]
compound = "Cc1ccc(NC(=O)N(C)CC(O)COCCOC(C)C)c(Br)c1 (stereo not drawn)"
property_measured = "cytotoxicity at 70.5 h"
observed = "-4.27%"

[[record]]
compound = "O=C(CCc1ccc(F)cc1)NCc1ccnc(NC2CC2)c1"
property_measured = "cytotoxicity at 70.5 h"
observed = "-2.2%"

[[record]]
compound = "CC(=O)N(Cc1ncc(C(C)C)o1)C1CCN(CCC#N)C1 (stereo not drawn)"
property_measured = "cytotoxicity at 70.5 h"
observed = "-7%"

[[record]]
compound = "Cc1cc(CN(C)Cc2csc(-c3ccc(C(C)C)cc3)n2)no1"
property_measured = "cytotoxicity at 70.5 h"
observed = "14.4%"

[[record]]
compound = "O=C(c1ccccn1)N1CCOC2(COCCN(Cc3cc[nH]n3)C2)C1 (stereo not drawn)"
property_measured = "cytotoxicity at 70.5 h"
observed = "-3.84%"

[[record]]
compound = "COCc1nnn2c1CN(C(=O)c1ccnnc1)CCC2"
property_measured = "cytotoxicity at 70.5 h"
observed = "8.76%"

[[record]]
compound = "CCc1ccc(-n2c(=O)[nH]c3nc(N4CCSCC4)ncc3c2=O)cc1"
property_measured = "cytotoxicity at 70.5 h"
observed = "-8.65%"

[[record]]
compound = "CC(C)(CO)CCCNC(=O)NC1(c2ccccc2F)CC1"
property_measured = "cytotoxicity at 70.5 h"
observed = "3.5%"

[[record]]
compound = "CC(C)COC[C@H]1CC[C@H]2[C@H](CCN2C(=O)c2ccncc2F)O1"
property_measured = "cytotoxicity at 70.5 h"
observed = "-0.218%"

[[record]]
compound = "CCC(C)(C)C(=O)N1C[C@@H]2C[C@@H](c3nnc(C)[nH]3)O[C@@H]2C1"
property_measured = "cytotoxicity at 70.5 h"
observed = "-8.87%"

